The reported numbers originate from the OPERA property sets (Mansouri et al. 2018).

logP values for the molecules below.
Reply briefly: the number, and no unit.

Some solved cases for reference:
* O=[N+]([O-])c1nc(Br)[nH]c1Br | 2.82
* CCC(=O)OC(C(=O)NC1C(=O)N2C(C(=O)O)=C(C)CSC12)c1ccccc1 (configuration not stated) | 1.47
* COc1nc(N(C)C)nc(C(Cl)(Cl)Cl)n1 | 3.33

Input: logP for O=c1nc(N=CN2CCCC2)ccn1C1CC(O)C(CO)O1 (configuration not stated) ?
Output: -1.02

Input: Which logP value is on record for Cc1nc([N+](=O)[O-])c(Cl)n1C ?
Output: 0.34

Input: Look at this molecule and give its reported logP. C#CCOc1c(Cl)cc(NC=NOCSC)cc1Cl
Output: 3.6

Input: Fill in: logP of CC(C)(C)C(COc1ccc(S(C)(=O)=O)cc1)OC(=O)n1ccnc1 (configuration not stated) is ___
Output: 2.59

Input: Fill in: logP of CCCCOC(=O)C(C(=O)OCCCC)=C1SCCS1 is ___
Output: 4.6

Input: So what's the measured logP for this one? CCOC(CNC(=O)C1(O)C(C)CC2C3CCC4=CC(=O)C=CC4(C)C3(F)C(O)CC21C)OCC (configuration not stated)
Output: 2.65

---

measured-parameter: logP
Form rule: numeric answer, no unit written next to it.

Consider the reported logP for these molecules:
• CCN1C(=O)NC(=O)C(=O)C1=O = -0.32
• O=C(N/N=C/c1ccc[nH]1)Nc1ccccc1 = 2.96
• S=C=NCCCc1ccccc1 = 3.8
• Nc1ncc(Cc2ccccc2Cl)c(N)n1 = 2.24
• C=C1C(=O)OC2CC(C)C3C=CC(=O)C3(C)C(OC(=O)CCCC(=O)OC3C4C(=C)C(=O)OC4CC(C)C4C=CC(=O)C43C)C12 (stereo not given) = 1.37

Input: Consider the molecule CCN1C(=O)C(=O)c2cc(OC)c(OC)cc2C1=O and give its measured logP.
Output: 1.31

Input: Look up logP: CN1C=CCC1c1cccnc1 (stereo not given)
Output: 1.47

Input: Which logP reading was recorded for the molecule Cc1n[nH]c(C(=O)NC2CCCCC2)c1[N+](=O)[O-] ?
Output: 1.71

Input: Form field: reported logP of CCNC(=O)C1(O)C(C)CC2C3CCC4=CC(=O)C=CC4(C)C3(F)C(O)CC21C (stereo not given)
Output: 2.07

Input: Which logP value belongs to COc1cccc(NC(=O)OCCN2CCOCC2)c1 ?
Output: 2.19

Input: Item COc1ccc2c(C)cc(=O)n3c(C)cc1c23 has what recorded logP?
Output: 2.84

---

measured-parameter: logP
# print the numeric value only

• CCCCCc1ccc(OCC(OC(=O)n2ccnc2)C(C)(C)C)cc1 (stereo unspecified) = 5.26
• C[Si](C)(C)C = 3.24
• CN1C=CCC(C(=O)OC2CCC(NC(=O)N(CCCl)N=O)CC2)=C1 (stereo unspecified) = 2.53
• CCC1COC(Cn2cncn2)(c2ccc(NC(=O)C(F)(F)F)cc2)O1 (stereo unspecified) = 1.08

Input: # query: logP of entry CCOc1ccccc1NC(=O)OCCN1CCOCC1
Output: 2.27

Input: Look up logP: C=CCn1cccn1
Output: 0.35

Input: Which logP value belongs to CC(C)NCC(COc1cccc2ccccc12)OS(=O)(=O)O (stereo unspecified) ?
Output: 1.16

Input: Given Cc1cn(C2CC(N=[N+]=[N-])C(COC(=O)CCNC(=O)C34CC5CC(CC(C5)C3)C4)O2)c(=O)[nH]c1=O (stereo unspecified) , state its recorded logP.
Output: 2.14

Input: Which logP value belongs to COc1cccc(N2CCN(CCN(C)C)C2=O)c1 ?
Output: 1.76

Input: Endpoint output: logP of CC1=C(N2CC2)C(=O)C(Br)=C(N2CC2)C1=O . Value?
Output: 1.36

Input: Any idea what its logP is? The compound is CC(NC(=O)N(CCCl)N=O)C(=O)O (stereo unspecified)
Output: 0.78

Input: What value of logP has been reported for the following compound? COCC(O)Cn1cc([N+](=O)[O-])nn1 (stereo unspecified)
Output: -0.36

Input: Which value of logP has been reported for OC1CCN(CCCc2ccccc2CSc2ccccc2)CC1 in the records?
Output: 3.85

Input: Would you mind telling me what logP value was observed for O=C(CCn1cnc([N+](=O)[O-])n1)NCCO ?
Output: -1.32

Input: Sample COC(O)Cn1c(Br)cnc1[N+](=O)[O-] (stereo unspecified) — what was its logP?
Output: 0.16

Input: // lookup logP for COC(C)(C(=O)O)c1ccccc1 (stereo unspecified)
Output: 1.64

Input: Can you look up the measured logP of Clc1cccc(-c2c(Cl)c(Cl)c(Cl)c(Cl)c2Cl)c1 for me?
Output: 7.3

Input: Which logP value is on record for Clc1ccc(Sc2nc(C(Cl)(Cl)Cl)nc(C(Cl)(Cl)Cl)n2)cc1 ?
Output: 6.67

Input: Quick one: logP for Cc1c([N+](=O)[O-])ncn1C ?
Output: -0.11

Input: For the compound shown here, CC1=C(/C=C/C(C)=C/C=C/C(C)=C/CO)C(C)(C)CCC1 , give the reported logP.
Output: 5.68

Input: Recorded logP for Cn1ccc(=O)cc1 , please?
Output: -1.22

Input: Quick check: logP of NS(=O)(=O)c1cc(C(=O)O)cc(N2CCCC2)c1Oc1ccccc1 ?
Output: 3.92

Input: Which measured logP value corresponds to O=c1[nH]c(Nc2ccccc2)nc2c1ncn2CC(O)CSCCO (stereo unspecified) ?
Output: 0.83

---

Binary classification by logP, with 2 as an inclusive lower bound for satisfied; all other cases are not satisfied.

# count of solved cases: 4
• CC(C)(C)c1ccc2c(c1)OCCOCCOCCOCCO2 = satisfied
• COc1cc(C)c2c(c1OC)-c1ccc(OC)c(=O)cc1C(NC(=O)c1ccc([N+](=O)[O-])cc1)CC2 (configuration not stated) = satisfied
• Cc1ccc(Cl)c(OCC(O)CNC(C)(C)C)c1 (configuration not stated) = satisfied
• O=c1[nH]c(Nc2ccccc2)nc2c1ncn2CCO = not satisfied

Input: Assess whether reported logP for NC(=O)C(=Cc1ccc([N+](=O)[O-])o1)c1ccco1 sits at 2 or higher.
Output: not satisfied

Input: Does Clc1cc(Cl)c(Cl)c(-c2cc(Cl)cc(Cl)c2Cl)c1 have a reported logP of at least 2?
Output: satisfied

Input: Say whether Clc1ccc(Oc2nc(C(Cl)(Cl)Cl)nc(C(Cl)(Cl)Cl)n2)cc1 shows logP of 2 or more.
Output: satisfied

Input: Is logP for C[Si](Cn1cncn1)(c1ccc(F)cc1)c1ccc(F)cc1 at or above 2?
Output: satisfied

Input: Is logP at least 2? Consider CNC(=NC#N)NCCSCc1nccs1
Output: not satisfied

Input: Is the recorded value of logP equal to or greater than 2 for this compound? OC1CCN(CCCc2ccccc2COc2ccccc2)CC1
Output: satisfied

---

Where a SMILES comes first, the peptide text is derived from it. [ ]: non-standard residue; d: D form. Orn = NCCC[CH](N)C(=O)O
Below, each entry is listed alongside its reported logP.
Kindly provide the number alone.

* Cc1n[nH]c(C(=O)NC2CC2)c1[N+](=O)[O-] | 0.25
* COC(=O)n1cnc(CC(NC(=O)C2CCC(=O)N2)C(=O)N2CCCC2C(N)=O)c1 (stereo not given) | -1.88
* CCC(C)C(NC(=O)C(CCCN)NC(C)=O)C(=O)NC(C(N)=O)C(C)C (stereo not drawn) (Ac-[Orn]-Ile-Val-NH2; configuration not given here) | -0.43
* CCCCCOc1ccc(NC(=O)OCCN2CCOCC2)cc1 | 3.96

Read the next record carefully.
Input: Param item = Cc1ncc([N+](=O)[O-])n1CC#N ; retrieve measured logP.
Output: -0.07

---

Where a SMILES comes first, the peptide text is derived from it. The star is where a group is joined. NHtBu = CC(C)(C)N*
measured-parameter: logP
Write the value as a bare number.

Illustrative cases are given below, each with its answer.
- Oc1ccc(I)c2cccnc12: 3.27
- CC1CC2C3CCC4=CC(=O)C=CC4(C)C3(F)C(O)CC2(C)C1(O)C(=O)NCC#N (stereo not given): 1.57
- CC(=O)NC(C)C(=O)N1CCCC1C(=O)NC(C)C(=O)NC(C)(C)C (stereo not drawn) (Ac-Ala-Pro-Ala-NHtBu; configuration not given here): -0.39
- CNC(=NC#N)NCCSCc1ncn(COC(=O)C(C)(C)C)c1C: 1.81
- CCCCN1C(=O)C(=O)c2ccccc2C1=O: 2.18
- C#CCOc1c(Cl)cc(NC=NOC(C)C)cc1Cl: 3.9
- Clc1cc(-c2c(Cl)c(Cl)c(Cl)c(Cl)c2Cl)c(Cl)c(Cl)c1Cl: 9.14
- CCCC(=O)OC(C(=O)NC1C(=O)N2C(C(=O)O)=C(C)CSC12)c1ccccc1 (stereo not given): 1.89
- c1ccc2c(c1)Cc1ccccc1S2: 3.86

Okay, now this compound:
Input: I'd like to know its logP. The compound in question is CC1NC(=O)C(CC(=O)NC(Cc2cn(C(=O)OCc3ccccc3)c3ccccc23)C(=O)NC(Cc2ccccc2)C(=O)N(C)Cc2ccccc2)NC1=O (stereo not given)
Output: 5.66
